Measured Target: TLR8 (Homo sapiens, UniProt Q9NR97)
Sequence (Q9NR97 27-1041): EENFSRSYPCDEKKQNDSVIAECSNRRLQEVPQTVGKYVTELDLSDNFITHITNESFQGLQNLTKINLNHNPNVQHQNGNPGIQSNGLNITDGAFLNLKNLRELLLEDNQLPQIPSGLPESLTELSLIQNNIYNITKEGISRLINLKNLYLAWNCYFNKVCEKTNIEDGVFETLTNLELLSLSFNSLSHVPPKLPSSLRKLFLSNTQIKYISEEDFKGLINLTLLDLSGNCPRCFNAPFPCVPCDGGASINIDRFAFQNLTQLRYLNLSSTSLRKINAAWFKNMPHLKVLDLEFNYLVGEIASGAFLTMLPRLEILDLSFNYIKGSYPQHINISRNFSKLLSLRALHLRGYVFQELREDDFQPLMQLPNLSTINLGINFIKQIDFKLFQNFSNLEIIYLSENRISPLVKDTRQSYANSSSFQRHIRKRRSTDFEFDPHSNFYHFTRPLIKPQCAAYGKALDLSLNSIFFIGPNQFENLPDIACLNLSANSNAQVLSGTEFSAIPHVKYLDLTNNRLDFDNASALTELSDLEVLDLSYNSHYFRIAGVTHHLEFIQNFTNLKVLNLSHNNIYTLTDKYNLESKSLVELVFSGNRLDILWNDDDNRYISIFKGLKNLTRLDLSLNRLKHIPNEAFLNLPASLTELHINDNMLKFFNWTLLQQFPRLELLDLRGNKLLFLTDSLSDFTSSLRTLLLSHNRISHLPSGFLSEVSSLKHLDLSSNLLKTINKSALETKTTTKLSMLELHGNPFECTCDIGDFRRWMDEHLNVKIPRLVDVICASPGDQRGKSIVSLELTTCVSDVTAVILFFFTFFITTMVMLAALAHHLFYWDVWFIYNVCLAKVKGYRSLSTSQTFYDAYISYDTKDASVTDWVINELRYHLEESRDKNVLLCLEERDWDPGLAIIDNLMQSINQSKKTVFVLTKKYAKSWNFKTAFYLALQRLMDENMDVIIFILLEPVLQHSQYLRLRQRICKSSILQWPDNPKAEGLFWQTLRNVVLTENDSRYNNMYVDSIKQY
Assay Summary: PBMC assay for TLR8 (TNFα in supernatants by ELISA)
Type: cell-based
Parameters: Peripheral blood mononuclear cells (PBMCs) from human blood were isolated; endogenous in cells; host or cells: human PBMCs
Measurement Context: human PBMCs incubated with compound overnight, MC50 = concentration at which 50% of maximum induction is seen
pEC50: −log10 of the molar value.
Each entry below carries its reported pEC50.

Compound: CCCN(CCC)C(=O)C1=Cc2ccc(-c3ccc(OCC(=O)OCC)cc3)cc2N=C(N)C1
pEC50: 6.00 to 7.00

Compound: CCCN(CCC)C(=O)C1=Cc2ccc(-c3ccc(CCC(=O)OCC)cc3)cc2N=C(N)C1
pEC50: 5.00 to 6.00

Compound: CCCN(CC1CCCN1)C(=O)C1=Cc2ccc(-c3ccc(C(=O)N4CCCC4)cc3)cc2N=C(N)C1 (centres unmarked)
pEC50: 5.00 to 6.00

Compound: CCCN(CCC)C(=O)C1=Cc2ccc(-c3ccc(OS(=O)(=O)C(F)(F)F)cc3)cc2N=C(N)C1
pEC50: 6.00 to 7.00

Compound: CCCN(CCC)C(=O)C1=Cc2ccc(CCCN3CCOCC3)cc2N=C(N)C1
pEC50: 7.00 to 9.00

Compound: CCCN(CCCO)C(=O)C1=Cc2ccc(-c3ccc(CC(=O)OCC(C)C)cc3)cc2N=C(N)C1
pEC50: 7.00 to 9.00

Compound: CCCN(CCCO)C(=O)C1=Cc2ccc(-c3ccc4c(c3)C(=O)OC4)cc2N=C(N)C1
pEC50: 7.00 to 9.00

Compound: CCCN(CCC)C(=O)C1=Cc2ccc(-c3ccc(C4CCOC4=O)cc3)cc2N=C(N)C1 (centres unmarked)
pEC50: 6.00 to 7.00

###

Measured Target: UniProt Q9NR97
Assay Summary: PBMC assay for TLR8 (TNFα in supernatants by ELISA)
Assay type: cell-based
Design: Peripheral blood mononuclear cells (PBMCs) from human blood were isolated; endogenous in cells; host or cells: human PBMCs
Measurement Context: human PBMCs incubated with compound overnight, MC50 = concentration at which 50% of maximum induction is seen
EC50: recorded values
Parameter Measured: EC50

Smiles Repr: CCCN(CCC)C(=O)C1=Cc2ccc(-c3ccc(C(=O)NCCCC(=O)OCc4ccccc4)cc3)cc2N=C(N)C1
Result: 100 to 1000 nM
//
Smiles Repr: CCCN(CCC)C(=O)C1=Cc2ccc(-c3ccc4c(c3)COC4=O)cc2N=C(N)C1
Result: 100 to 1000 nM
//
Smiles Repr: CCCN(CCC)C(=O)C1=Cc2ccc(-c3cncc(CO)c3)cc2N=C(N)C1
Result: 1 to 100 nM
